Test system: SF-295
Assay: NCI tumour cell line growth inhibition, 48 h
Calls of active or inactive are those of the source. Cut-off read from the data, not from the text of the source: active = GI50 up to about 1.1 µM and inactive = higher.
PROPERTY MEASURED: GI50

Record request: GI50 value, item `Cc1cc(NS(=O)(=O)c2ccc(NC(=O)c3cccc4c(Nc5ccc(S(=O)(=O)N=C(N)N)cc5)c5ccccc5nc34)cc2)no1`
> 100 µM (inactive)

Record request: GI50 value, item `O=C1Nc2ccc(Cl)c(I)c2C1=O`
17.8 µM (inactive)

Record request: GI50 value, item `N#Cc1c(-c2ccc([N+](=O)[O-])cc2)c(C#N)c(=O)n(NS(=O)(=O)c2ccccc2)c1S`
44.8 µM (inactive)

Record request: GI50 value, item CCCC1(N)CC(OC)OC(C)C1O (stereo not given)
> 100 µM (inactive)

Would you mind giving GI50 for every compound in the list below?
1. C=C(c1ccccc1)C1ON(C)CCc2cc(OC)c(OC)cc21 (stereo not given)
2. Cc1ccc(NC(=S)N/N=C2\C(=O)Nc3ccccc32)cc1
3. O=c1[nH]c(=O)n(C2CC(O)C(CO)O2)cc1C#Cc1cc(C(F)(F)F)cc(C(F)(F)F)c1 (stereo not given)
4. COC(=O)/C(=N\NC(=O)c1ccccc1O)C(C#N)c1ccc(Cl)cc1 (stereo not given)
5. Cc1cc2ccccc2n2c1nc1ccccc12

1. 58.9 µM (inactive)
2. 49.9 µM (inactive)
3. 17.3 µM (inactive)
4. 30.5 µM (inactive)
5. > 100 µM (inactive)

Record request: GI50 value, item `O=C(CSc1nnc(-c2ccc(/N=C\c3ccc(Cl)cc3)cc2)o1)Nc1ccc([N+](=O)[O-])cc1`
30.2 µM (inactive)

* * *

Tested on: LOX IMVI
Test: NCI tumour cell line growth inhibition, 48 h
Calls of active or inactive are those of the source. No stated cut-off is given here; in the data, active = GI50 up to about 1.1 µM and inactive = higher.
Output constraint: value belongs to 1 = active, 0 = inactive

The examples below pair each entry with its known result.
Entry `O=[N+]([O-])/C(C(Cl)=C(Cl)Cl)=C(/Sc1ccccc1)N1CCOCC1` : call = ?
0

Entry `CCCCCCCCCCCC1=C(O)C(=O)C(CC2=C(O)C(=O)C(CCCCCCCCCCC)=C(O)C2=O)=C(O)C1=O` : call = ?
0

Entry CCCCOC(=O)c1cc(C(=CCC[C@H]2CC[C@@]3(C)[C@@H](CC[C@@H]4[C@@H]3CC[C@]3(C)[C@@H](C(C)CCCC(C)C)CC[C@@H]43)C2)c2cc(Cl)c(O)c(C(=O)OCCCC)c2)cc(Cl)c1O (some centres undefined) : call = ?
0

Entry `COCN1C(=O)[C@@H]2CCCN2C(=O)c2ccc(Cl)cc21` : call = ?
0

Entry CCC12C[N+]3([O-])CCc4c([nH]c5ccccc45)C(C(=O)OC)(c4cc5c(cc4OC)N(C)C4C(O)(C(=O)OC)C(OC(C)=O)C6(CC)C=CCN7CCC54C76)CC(C3)C1O2 (centres undefined) : call = ?
1

Please turn your attention to the following entry.
Entry `NCCNS(=O)(=O)c1ccc(N)cc1` : call = ?
0

* * *

Tested on: CAKI-1
Assay: NCI tumour cell line growth inhibition, 48 h
The source made the active and inactive calls. No stated cut-off is given here; in the data, active = GI50 up to about 1.1 µM and inactive = higher.
Output constraint: value belongs to active, inactive

The examples below pair each entry with its known result.
Entry `COc1ccccc1/[N+]([O-])=C/c1ccccc1OC(=S)S` : call = ?
inactive

Entry `CNC(=O)c1nn[nH]c1Sc1c([N+](=O)[O-])ncn1C` : call = ?
inactive

Entry `N#C/C(C(=O)Nc1ccc(Cl)cc1)=C(/N)N1CCCCC1` : call = ?
inactive

Entry `COc1cccc(NC(=O)C(C#N)=C(SC)SC)c1` : call = ?
inactive

Entry `CCc1nnc2sc(-c3ccc(-c4ccccc4[N+](=O)[O-])o3)nn12` : call = ?
inactive

***
Entry O=[N+]([O-])c1cc(C2SCc3nc4ccccc4n32)ccc1Cl (stereo not drawn) : call = ?
inactive

Entry `Cc1ccnc2nc(-c3ccc(Cl)cc3)cc(O)c12` : call = ?
inactive

Entry `CCN(CC)CCC(=O)c1ccc(Oc2ccc(C)cc2)cc1` : call = ?
inactive

Entry COc1ccc(C2=NN(C(=N)S)C(c3ccccc3)C2)cc1 (stereo not drawn) : call = ?
inactive

Entry `O=C1Nc2cccc(Cl)c2/C1=C\c1c(-c2ccccc2)nc2n1CCS2` : call = ?
inactive

Entry CC(C)(Br)C(Br)CCC1(C(Br)CBr)CO1 (stereo not drawn) : call = ?
inactive

* * *

System: NCI-H23
Test: NCI tumour cell line growth inhibition, 48 h
Active and inactive are the calls of the source. Cut-off read from the data, not from the text of the source: active = GI50 up to about 1.1 µM and inactive = higher.
PROPERTY MEASURED: GI50

Example entries begin here.
Record request: GI50 value, item CC(C)C1=CC23CCC4C(C)(C(=O)O)CCCC4(C)C2CC1C1C(=O)N(c2ccccc2)C(=O)C13 (stereo unspecified)
> 100 µM (inactive)

Record request: GI50 value, item `CCOC(=O)c1nc2cc(C(F)(F)F)ccc2nc1Nc1cc(OC)c(OC)c(OC)c1`
> 100 µM (inactive)

Record request: GI50 value, item CC(=O)N1N=C(c2ccc3ccccc3c2O)CC1c1cccs1 (stereo unspecified)
20.3 µM (inactive)

Record request: GI50 value, item C=CC(C)(C)[C@@]12CC3C(=O)N[C@@H](Cc4ccccc4)C(=O)N3[C@@H]1N(C(C)=O)c1ccccc12 (stereo partly specified)
> 100 µM (inactive)

Record request: GI50 value, item `CN(C)c1nc(N)c(C#N)c(C#N)c1C#N`
> 7.46 µM (inactive)

Record request: GI50 value, item `CCOC(=O)NN(C(=O)OCC)C(C(=O)c1ccccc1)N(NC(=O)OCC)C(=O)OCC`
> 100 µM (inactive)

Would you mind giving GI50 for every compound in the list below?
1. OC(CC(c1ccccc1)c1ccc(Cl)cc1)c1ccc(Cl)cc1 (stereo unspecified)
2. CCC(=O)N(c1ccccc1)C(C)CN1CCC(O)(c2ccccc2)CC1 (stereo unspecified)
3. CN(C)CCNc1ncnc2nc(-c3ccccc3)c(-c3ccccc3)nc12
4. COc1cc(/C=C2\S/C(=N/Nc3nc(-c4ccc(Br)cc4)cs3)NC2=O)cc(OC)c1OC
5. COc1cc(OC)cc(OCc2ccc3nc(-c4ccccc4)c(Cl)nc3c2)c1

29.7 µM (inactive)
> 100 µM (inactive)
> 100 µM (inactive)
5.11 µM (inactive)
17.3 µM (inactive)

Would you mind giving GI50 for every compound in the list below?
1. O=NN1C(c2ccccc2)CNC(=O)CC1c1ccccc1 (stereo unspecified)
2. Cc1nc(O)c2c3c(sc2n1)CCCC3
3. O=C(CCc1ccc(O)cc1)NCCCNC(=O)CCc1ccc(O)cc1
4. CSc1c(C#N)c(S)[nH]c(=O)c1C#N

1. 33.1 µM (inactive)
2. > 100 µM (inactive)
3. > 100 µM (inactive)
4. 23.7 µM (inactive)

Would you mind giving GI50 for every compound in the list below?
1. COc1ccc(-c2cc(=O)c3c(O)cc(O)cc3o2)cc1OC
2. O=c1oc2c(Cl)cc(Cl)cc2cc1-c1cn2c(n1)sc1ccccc12
3. Cc1c(C(=O)C/C(=N/NC(=O)C[N+](C)(C)C)C(=O)Nc2ccc(Cl)cc2)[n+]([O-])c2ccccc2[n+]1[O-]

1. > 100 µM (inactive)
2. 95.5 µM (inactive)
3. > 100 µM (inactive)

* * *

Test system: A498
Assay: NCI tumour cell line growth inhibition, 48 h
The source made the active and inactive calls. Cut-off read from the data, not from the text of the source: active = GI50 up to about 1.1 µM and inactive = higher.
Output constraint: value belongs to active, inactive

Entry `O=C(O)c1ccc(N2C=[N+]3C(=Nc4ccccc43)C2)cc1` : call = ?
inactive

Entry `COc1cc2c(cc1OC)C(c1ccccc1CCCCl)=NCC2` : call = ?
inactive

Entry OC(CC(c1ccccc1)c1ccc(Cl)cc1)c1ccc(Cl)cc1 (stereo not given) : call = ?
inactive

Entry O=c1[nH]c(=O)n(C2OC(COP(=O)(O)OP(=O)(O)OC3OC(CO)C(O)C(O)C3O)C(O)C2O)cc1F (stereo not given) : call = ?
active

Entry `[O-][S+]1c2ccccc2SCSc2ccccc21` : call = ?
inactive

Entry `O=C(O)CNS(=O)(=O)c1ccc(NC(=O)c2ccccc2[N+](=O)[O-])cc1` : call = ?
inactive

Entry COc1ccc2[nH]c(C(=O)N3CC(CCl)c4ccc([N+](=O)[O-])cc43)cc2c1 (stereo not given) : call = ?
inactive

Entry Nc1ccccc1SC(/C=C/NNC1=NN=C(c2ccccc2)C(c2ccccc2)N1)c1ccccc1 (stereo not given) : call = ?
inactive

***
Entry `Cc1nc2cc(Nc3ccccc3C(=O)O)ccc2s1` : call = ?
inactive

Entry `COc1cc(OC)cc(OCc2ccc3nc(-c4ccccc4)c(Cl)nc3c2)c1` : call = ?
inactive

* * *

Test system: CAKI-1
Test: NCI tumour cell line growth inhibition, 48 h
Active and inactive are the calls of the source. No stated cut-off is given here; in the data, active = GI50 up to about 1.1 µM and inactive = higher.
PROPERTY MEASURED: GI50

Example entries begin here.
Record request: GI50 value, item CCC12C[N+]3([O-])CCc4c([nH]c5ccccc45)C(C(=O)OC)(c4cc5c(cc4OC)N(C)C4C(O)(C(=O)OC)C(OC(C)=O)C6(CC)C=CCN7CCC54C76)CC(C3)C1O2 (centres undefined)
5.93 µM (inactive)

Record request: GI50 value, item `Cc1cc(C)cc(-n2c3nc(=O)n(C)c(=O)c-3nc3ccccc32)c1`
37.8 µM (inactive)

Would you mind giving GI50 for every compound in the list below?
1. CCCN(CCC)CCc1ccc(OC2=CCN(C)CC2)cc1
2. CSc1scc2c1/C(=N/NC(N)=O)CCC2

1: > 100 µM (inactive); 2: 69.7 µM (inactive)

Would you mind giving GI50 for every compound in the list below?
1. S=C(N/N=C\c1ccccn1)N(Cc1ccccn1)Cc1ccccn1
2. O=S(=O)(c1ccccc1)N1N=C2c3ccccc3CCC[C@H]2C1c1ccccc1 (some centres undefined)

1. 0.229 µM (active)
2. > 100 µM (inactive)
